System: HT-29
measurement-protocol: NCI tumour cell line growth inhibition, 48 h
Activity calls are given as the source filed them. Cut-off read from the data, not from the text of the source: active = GI50 up to about 1.1 µM and inactive = higher.
Parameter GI50: see the listing below.

Some compounds with recorded GI50:
>>> experimental_value("O=C(O)c1ccc2c(O)c(O)ccc2c1")
"6.82 µM (inactive)"
>>> experimental_value("COc1ccc2nc(NC(=O)C(=O)C(C#N)c3ccc(CC#N)cc3)sc2c1 (stereo not given)")
"> 100 µM (inactive)"
>>> experimental_value("CCOC(=O)CC(=O)Nc1cccc2sc3ncccc3c(=O)c12")
"38.8 µM (inactive)"
>>> experimental_value("CC(=O)Nc1c(C)ccc2c1C(=O)c1ccccc1C2=O")
"> 100 µM (inactive)"
>>> experimental_value("COC(=O)CC[N+]1=CCC(c2ccccc2)(c2ccccc2)O1")
"> 100 µM (inactive)"

For CCOC(=O)C12CCSC1C1(C#N)C(C#N)=CC2(N=P(c2ccccc2)(c2ccccc2)c2ccccc2)n2c(=O)n(-c3ccccc3)c(=O)n21 (stereo not given) , what is its reported GI50?
39.8 µM (inactive)

For CN1N=CSC12C(=O)N(c1ccc(Cl)cc1)C(=O)N2c1ccc(Cl)cc1 (stereo not given) , what is its reported GI50?
3.4 µM (inactive)

For N#Cc1[nH]c(=O)n(-c2ccccc2)c1N , what is its reported GI50?
> 10 µM (inactive)

For Cn1c2cc([N+](=O)[O-])ccc2c(=O)c2c(O)cc3c(c21)C=CC(C)(C)O3 , what is its reported GI50?
> 100 µM (inactive)

For NN/C(=N\S(=O)(=O)c1ccc(-c2ccccn2)s1)Nc1ccc(Cl)cc1 , what is its reported GI50?
> 100 µM (inactive)
